Recorded pEC50 for the following substances
assayed system: hGIPR (Homo sapiens, UniProt P48546)
Construct: expressed in transfected cells; host or cells: CHO cells carrying a CRE-luciferase reporter gene
Sequence (P48546 22-466): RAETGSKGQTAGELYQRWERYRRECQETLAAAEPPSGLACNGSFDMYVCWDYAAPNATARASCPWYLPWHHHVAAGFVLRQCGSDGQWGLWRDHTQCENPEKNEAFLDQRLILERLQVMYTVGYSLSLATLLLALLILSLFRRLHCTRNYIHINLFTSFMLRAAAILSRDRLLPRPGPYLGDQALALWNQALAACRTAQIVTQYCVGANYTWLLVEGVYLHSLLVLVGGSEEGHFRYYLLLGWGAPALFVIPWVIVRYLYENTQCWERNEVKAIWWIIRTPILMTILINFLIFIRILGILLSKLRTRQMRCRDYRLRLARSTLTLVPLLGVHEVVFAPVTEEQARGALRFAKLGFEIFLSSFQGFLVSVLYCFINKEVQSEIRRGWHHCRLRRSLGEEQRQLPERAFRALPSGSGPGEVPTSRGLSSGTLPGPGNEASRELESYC
method description: hGIPR CreLuc reporter gene assay in 0.5% and 100% plasma
Format: cell-based
conditions used: CreLuc reporter gene assay, 0.5% human plasma; read-out: hGIPR 0.5% hP
Starred links: 1 amine or outer side, 2 acyl side, 3 side chain; linkers in the order of their positions; H or OH if unused. Non-standard residues stand in square brackets, D forms with d. Groups on a side chain read outwards from the residue. *: point of attachment. C20 diacid = O=C(O)CCCCCCCCCCCCCCCCCCC(=O)*; C18 diacid = O=C(O)CCCCCCCCCCCCCCCCC(=O)*; γGlu = O=C(O)[C@H](CCC(=O)[*:2])N[*:1]; εLys = N[C@@H](CCCCN[*:1])C(=O)[*:2]; Aib = CC(C)(N)C(=O)O
pEC50 (log units): -log10 of the concentration in mol/L.

Identify measured pEC50 corresponding to H-Y[Aib]EGTFTSDYSI[Aib]LEKQAE[Aib]AFVQWLIK([εLys-γGlu-γGlu-γGlu-γGlu-C18 diacid])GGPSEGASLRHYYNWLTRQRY-NH2 [Compound 174] 9.77

Return pEC50 (reported value) for this substance: H-Y[Aib]EGTFTSDYSI[Aib]LEKQAE[Aib]AFVEWLIK([γGlu-γGlu-γGlu-γGlu-C20 diacid])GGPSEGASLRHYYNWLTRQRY-NH2 [Compound 280] 9.42

Provide pEC50 value for the following substance: H-Y[Aib]EGTFTSDYSI[Aib]LEKQAQ[Aib]AFVEWLIK([εLys-γGlu-γGlu-γGlu-γGlu-γGlu-γGlu-γGlu-C20 diacid])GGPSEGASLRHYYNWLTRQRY-NH2 [Compound 288] 9.29
